Below, each of the molecules is paired with its reported inhibition value.
Biological target: Aminopeptidase N (Plasmodium falciparum (isolate 3D7)) (UniProt O96935)
Sequence (O96935 whole entry, looked up): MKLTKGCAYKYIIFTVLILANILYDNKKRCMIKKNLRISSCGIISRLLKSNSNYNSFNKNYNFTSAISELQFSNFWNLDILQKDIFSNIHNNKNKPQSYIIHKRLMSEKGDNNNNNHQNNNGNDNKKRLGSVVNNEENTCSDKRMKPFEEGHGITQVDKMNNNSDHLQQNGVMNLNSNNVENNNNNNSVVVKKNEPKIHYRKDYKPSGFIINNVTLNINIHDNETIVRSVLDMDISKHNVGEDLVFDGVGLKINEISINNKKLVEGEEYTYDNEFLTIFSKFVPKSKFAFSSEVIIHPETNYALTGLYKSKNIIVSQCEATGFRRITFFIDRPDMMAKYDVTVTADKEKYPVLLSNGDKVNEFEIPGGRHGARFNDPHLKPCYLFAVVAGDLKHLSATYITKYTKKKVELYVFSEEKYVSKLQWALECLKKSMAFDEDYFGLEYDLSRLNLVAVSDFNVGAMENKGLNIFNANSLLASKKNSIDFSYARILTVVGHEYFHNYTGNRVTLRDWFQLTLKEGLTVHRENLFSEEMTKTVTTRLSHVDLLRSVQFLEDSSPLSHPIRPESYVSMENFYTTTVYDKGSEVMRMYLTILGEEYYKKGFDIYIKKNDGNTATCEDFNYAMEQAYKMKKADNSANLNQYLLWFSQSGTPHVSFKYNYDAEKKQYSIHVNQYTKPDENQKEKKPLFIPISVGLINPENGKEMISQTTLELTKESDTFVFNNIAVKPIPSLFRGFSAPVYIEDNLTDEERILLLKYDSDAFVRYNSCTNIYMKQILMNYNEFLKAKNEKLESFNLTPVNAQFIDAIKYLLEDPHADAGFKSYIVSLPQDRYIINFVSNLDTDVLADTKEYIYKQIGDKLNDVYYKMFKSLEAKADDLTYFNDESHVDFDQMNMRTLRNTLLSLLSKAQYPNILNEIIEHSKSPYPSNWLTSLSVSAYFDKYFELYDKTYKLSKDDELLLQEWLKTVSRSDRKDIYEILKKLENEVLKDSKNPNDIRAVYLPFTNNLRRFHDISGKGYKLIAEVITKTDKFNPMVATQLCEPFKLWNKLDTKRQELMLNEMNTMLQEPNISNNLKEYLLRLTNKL
Experiment: malaria alanyl aminopeptidase activity blockers – biochemical, fluorogenic H-Leu-NHMec substrate, 1536-well (AID 1445);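 also: plate controls were DMSO full reaction for no effect and no enzyme background for full effect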
Settings: recombinant M1AAP, H-Leu-NHMec fluorogenic kinetic assay; at 30 µM, active compounds read high unless noted
Hit rate of the full screen: of about 220,000 compounds, about 910 (0.41%) were called active. The full list was thinned out, with actives kept by preference. Potency and affinity values are given separately.
resultType: inhibition (%)

1) Cc1ccc(NC(NC(=O)c2ccccc2[N+](=O)[O-])C(Cl)(Cl)Cl)cc1 (stereo not given) : 7.36
2) CC1CC(NC(=O)C2(C)CC2(Cl)Cl)CC(C)(C)C1 (stereo not given) : 1.77
3) COc1ccc(NC(=O)C23CC4CC(C2)CC(c2ccccc2)(C4)C3)c(OC)c1 : -2.32
4) CC(=O)c1ccc(NC(=S)NC(NC(=O)c2ccco2)C(Cl)(Cl)Cl)cc1 (stereo not given) : 11.3
5) COc1ccc(C(C(=O)NC(C)(C)C)N(Cc2cccs2)C(=O)CCC(=O)Nc2cc(C)on2)cc1 (stereo not given) : -3.34
6) CCN1CCN(C(c2cc3cc4c(cc3[nH]c2=O)OCO4)c2nnnn2C(C)(C)CC)CC1 (stereo not given) : 12.6
7) O=C(NC(NC(=S)Nc1ccc(Cl)c(Cl)c1)C(Cl)(Cl)Cl)c1ccco1 (stereo not given) : 9.33
8) O=C(Nc1cccc(O)c1)c1ccccc1[N+](=O)[O-] : -3.03
9) Cc1cccc(NC(=S)NC(NC(=O)c2ccco2)C(Cl)(Cl)Cl)c1 (stereo not given) : 18.2
10) CCCCNC(=O)Cn1c(=O)oc2cc(S(=O)(=O)N3CC(C)CC(C)C3)ccc21 (stereo not given) : 2.08
